B1: library; numbered along this chain (parent)
chain: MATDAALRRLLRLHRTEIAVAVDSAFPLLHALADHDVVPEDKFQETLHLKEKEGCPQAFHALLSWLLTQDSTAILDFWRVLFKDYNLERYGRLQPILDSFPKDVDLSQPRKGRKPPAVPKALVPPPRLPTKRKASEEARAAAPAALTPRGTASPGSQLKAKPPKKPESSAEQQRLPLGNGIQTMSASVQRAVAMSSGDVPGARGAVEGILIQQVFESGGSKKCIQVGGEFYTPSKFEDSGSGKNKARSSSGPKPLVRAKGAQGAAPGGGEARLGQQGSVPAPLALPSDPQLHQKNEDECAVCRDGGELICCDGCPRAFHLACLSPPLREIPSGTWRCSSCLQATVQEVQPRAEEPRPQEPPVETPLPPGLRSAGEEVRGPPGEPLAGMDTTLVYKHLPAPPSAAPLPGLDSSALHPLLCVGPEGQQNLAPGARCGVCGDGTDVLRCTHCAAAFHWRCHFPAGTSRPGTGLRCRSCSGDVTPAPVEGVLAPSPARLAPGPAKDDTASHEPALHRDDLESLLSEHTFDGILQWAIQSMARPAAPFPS

variants of: B1; experiment: AIRE transcriptional activation functional score (insulin promoter-GFP; nonsense median 0, synonymous median 1) (normalised score); higher = higher AIRE activity (more reporter activation); conditions: with insulin promoter-GFP reporter in HEK293
For each record, write down the corresponding AIRE transcriptional activation functional score.
Answers are plain numbers.

E207D; 0.788
L122N; 0.335
C340G; 1.44
D410H; 1.17
H415S; 0.782

Could you tell me AIRE transcriptional activation functional score for each of these variants? They are listed below.
1. F525V
2. E270G
3. G269A
4. H507C
5. H507F
6. A138R

Solution:
[0.609, 1.11, 1.39, 0.78, 1.56, 1.19]

For each of the items listed, what is its AIRE transcriptional activation functional score?
1. L428F
2. P497M
3. P162I
4. Q425P
5. K164A
6. R473G
7. A2E

Solution:
1. 1.09
2. 1.19
3. 1.97
4. 1.21
5. 1.17
6. 0.848
7. 1.14
